// provenance: patent US20260097037A1

- Tested on: Human GLP-1 receptor stably expressing cells (hGLP-1R/CHO-K1 cells) (Homo sapiens, UniProt P43220)
- Sequence (P43220 24-463): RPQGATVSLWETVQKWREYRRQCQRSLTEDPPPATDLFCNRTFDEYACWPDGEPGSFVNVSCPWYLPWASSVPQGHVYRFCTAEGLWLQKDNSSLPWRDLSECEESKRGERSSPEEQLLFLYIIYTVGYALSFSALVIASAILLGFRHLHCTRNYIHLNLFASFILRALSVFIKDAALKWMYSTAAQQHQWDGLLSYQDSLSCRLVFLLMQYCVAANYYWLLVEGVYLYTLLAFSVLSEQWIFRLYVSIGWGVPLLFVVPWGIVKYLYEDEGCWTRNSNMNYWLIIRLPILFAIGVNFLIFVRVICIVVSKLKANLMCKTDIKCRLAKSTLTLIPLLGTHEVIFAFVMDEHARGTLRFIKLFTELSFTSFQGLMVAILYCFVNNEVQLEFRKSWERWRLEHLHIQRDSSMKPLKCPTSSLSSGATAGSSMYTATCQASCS
- Test: Measurement of GLP-1 receptor agonist activity (cAMP assay)
- Assay context: increase in cAMP concentration in hGLP-1R/CHO-K1 cells, 37° C. 1 hour
In this section, each of the compounds is paired with its reported EC50.
Write it as a number; the unit nM goes unstated.

Examples from the recorded data:
C[C@H]1c2c(cc(Cl)c3c2OC(C)(c2ccc(Cl)cn2)O3)CCN1Cc1nc2ccc(C(=O)O)cc2n1C[C@@H]1CCO1 (stereo partly drawn); 1.58
C[C@H]1c2nc(OCc3ccc(Cl)cc3F)c(C(F)(F)F)nc2CCN1Cc1nc2ccc(C(=O)O)cc2n1C[C@@H]1CCO1; 0.174

Query string: Any idea what its EC50 is? The compound is C[C@H]1c2nc(OCc3ccc(Cl)c4ccoc34)c(C#N)cc2CCN1Cc1nc2c(Cl)cc(C(=O)O)cc2n1C[C@@H]1CCO1
Result string: 0.28

Query string: And C[C@H]1c2nc(OCc3ccc(F)cc3)c(C(F)F)cc2CCN1Cc1nc2ccc(C(=O)O)c(F)c2n1C[C@@H]1CCO1 ?
Result string: 0.372

Query string: And O=C(O)c1ccc2nc(C3CC34CCc3cc(C(F)(F)F)c(OCc5ccc(Cl)cc5F)cc3C4)n(C[C@@H]3CCO3)c2c1 (stereo partly drawn) ?
Result string: 514

Query string: And C[C@H]1c2nc(OCc3nc(Cl)cs3)c(C(F)(F)F)cc2CCN1Cc1nc2ccc(C(=O)O)cc2n1C[C@@H]1CCO1 ?
Result string: 1.09

* * *

- Tested on: Human GLP-1 receptor stably expressing cells (hGLP-1R/CHO-K1 cells) (Homo sapiens, UniProt P43220)
- Test: Measurement of GLP-1 receptor agonist activity (cAMP assay)
- Assay context: increase in cAMP concentration in hGLP-1R/CHO-K1 cells, 37° C. 1 hour
pEC50: −log10 of the molar value.
Each entry gets not fulfilled if its pEC50 stays under 10, and fulfilled if its pEC50 is 10 or above.

Cc1ccc(COc2nc3c(cc2C(F)F)CCN(Cc2nc4ccc(C(=O)O)nc4n2C[C@@H]2CCO2)[C@H]3C)cc1 [Compound I-098]; not fulfilled
C[C@H]1c2nc(NCc3ccc(C#N)cc3F)c(C(F)(F)F)cc2CCN1Cc1nc2c(F)cc(C(=O)O)cc2n1C[C@@H]1CCO1 [Compound I-193]; not fulfilled
C[C@H]1c2nc(OCc3cnn(C)n3)c(C(F)(F)F)cc2CCN1Cc1nc2ccc(C(=O)O)cc2n1C[C@@H]1CCO1 [Compound I-142]; not fulfilled

Query string: Determine whether measured pEC50 meets or exceeds 10 for C[C@H]1c2nc(OCc3ccc(Cl)cc3F)c(C(F)F)cc2CCN1Cc1nc2c(F)cc(C(=O)O)cc2n1C[C@@H]1CCO1 [Compound I-108]
Result string: fulfilled

Query string: And C[C@H]1c2nc(OCc3ccc(Cl)cn3)c(C(F)F)cc2CCN1Cc1nc2ccc(C(=O)O)c(F)c2n1C[C@@H]1CCO1 [Compound I-123] ?
Result string: not fulfilled

Query string: And C[C@H]1c2c(ccc3c2OC(C)(c2ccc(Cl)cn2)O3)CCN1Cc1nc2ccc(C(=O)O)cc2n1C[C@@H]1CCO1 (stereo partly shown) [Compound I-093] ?
Result string: not fulfilled

Query string: And COc1cc(C(=O)O)cc2c1nc(CN1CCc3cc(C#N)c(OCc4ccc(Cl)cc4F)nc3[C@@H]1C)n2C[C@@H]1CCO1 [Compound I-139] ?
Result string: fulfilled

Query string: And COc1cc(C(=O)O)cc2c1nc(CN1CCc3cc(Cl)c(OCc4ccc(Cl)cc4Cl)nc3[C@@H]1C)n2C[C@@H]1CCO1 [Compound I-070] ?
Result string: fulfilled

Query string: And C[C@H]1c2nc(OCc3ccc(F)cc3)c(Cl)cc2CCN1Cc1nc2c(F)cc(C(=O)O)cc2n1C[C@@H]1CCO1 [Compound I-087] ?
Result string: not fulfilled

Query string: And C[C@H]1c2cc(OCc3ccc(F)cc3F)c(C(F)F)cc2CCN1Cc1nc2ccc(C(=O)O)cc2n1C[C@@H]1CCO1 [Compound I-008] ?
Result string: not fulfilled

Query string: And Cc1ccc(COc2nc3c(cc2Cl)CCN(Cc2nc4ccc(C(=O)O)cc4n2C[C@@H]2CCO2)[C@H]3C)cc1 [Compound I-028] ?
Result string: not fulfilled

Query string: And C[C@H]1c2c(cc(C(F)(F)F)c3c2O[C@@](C)(c2ccc(Cl)cn2)O3)CCN1Cc1nc2ccc(C(=O)O)cc2n1C[C@@H]1CCO1 [Compound I-027] ?
Result string: not fulfilled
